# Test system: HIV-1 RF virus in CEM-SS cells
# test.method.notes: HIV-1 cell protection assay (XTT dye reduction)
# Assay type: cell-based
# measurement.context: Human immunodeficiency virus 1, CEM-SS, 144 h
Where a name gives a salt, the structure may show the parent alone.
Note to self: EC50 under 7 nM means Criterion met, ties and anything higher get Criterion not met.

Request: API: query returns whether the compound falls strictly under 7 nM in EC50. Query: Cc1cc2c(ncc3c2c(CO)cn3Cc2ccc(F)cc2)c(=O)n1O
Result: Criterion met

Request: How about N#Cc1cc(F)ccc1Cn1ccc2c3c(ncc21)C(=O)N(O)CC3 ?
Result: Criterion met

Request: Cool, now O=C1c2ncc3c(c(CN4CCCC4)cn3Cc3ccc(F)cc3)c2CCN1O
Result: Criterion met

Request: And CN1CCN(C(=O)c2cn(Cc3ccc(F)cc3)c3cnc4c(c23)CCN(O)C4=O)CC1 ?
Result: Criterion not met

Request: Quick one: CN(C(=O)c1cn(Cc2ccc(F)cc2)c2cnc3c(c12)CCN(O)C3=O)C1CCOCC1
Result: Criterion not met

Request: Also, CCOCCCOCc1cn(Cc2ccc(F)cc2)c2cnc3c(c12)CCN(O)C3=O [Example 51, hydrochloride] please.
Result: Criterion met
